Assay: Displacement of [3H]bradykinin from bradykinin receptor in guinea pig ileal membrane
Assay type: cell membranes, Cavia porcellus
endpoint name: Ki (nM)
Give your result in nM as a bare value.

Fill in the blank: the reported Ki of NC(N)=NCCC[C@@H](N)C(=O)N[C@@H](CCCN=C(N)N)C(=O)N1CCC[C@H]1C(=O)N1C[C@@H](O)C[C@H]1C(=O)NCC(=O)N[C@@H](Cc1cccs1)C(=O)N[C@@H](CO)C(=O)N1Cc2ccccc2C[C@@H]1C(=O)N1Cc2ccccc2C[C@H]1C(=O)N[C@@H](CCCN=C(N)N)C(=O)O is ____.
0.381

Same for NC(N)=NCCC[C@@H](N)C(=O)N[C@@H](CCCN=C(N)N)C(=O)N1CCC[C@H]1C(=O)N1C[C@@H](O)C[C@H]1C(=O)NCC(=O)N[C@@H](Cc1cccs1)C(=O)N[C@H]1CSSC[C@@H](C(=O)N[C@@H](CCCN=C(N)N)C(=O)O)NC(=O)[C@H](Cc2ccccc2)NC(=O)[C@@H](Cc2ccccc2)NC1=O
876

====

Experiment: Displacement of [3H]bradykinin from bradykinin receptor in guinea pig ileal membrane
Format: cell membranes, Cavia porcellus
Give measured pKi for each item. Keep answers brief.
Reminder that pKi means the negative base-10 logarithm of the concentration expressed in mol/L.

Fill in the blank: the reported pKi of NC(N)=NCCC[C@@H](N)C(=O)N[C@@H](CCCN=C(N)N)C(=O)N1CCC[C@H]1C(=O)N1C[C@H](O)C[C@H]1C(=O)NCC(=O)N[C@@H](Cc1ccccc1)C(=O)N[C@@H](CO)C(=O)N[C@H](Cc1ccccc1)C(=O)N[C@@H](Cc1ccccc1)C(=O)N[C@@H](CCCN=C(N)N)C(=O)O is ____.
7.57

Same for NC(N)=NCCC[C@@H](N)C(=O)N[C@@H](CCCN=C(N)N)C(=O)N1CCC[C@H]1C(=O)N1C[C@@H](O)C[C@H]1C(=O)NCC(=O)N[C@@H](Cc1cccs1)C(=O)N[C@@H](CO)C(=O)N1Cc2ccccc2C[C@@H]1C(=O)N1Cc2ccccc2C[C@@H]1C(=O)N[C@@H](CCCN=C(N)N)C(=O)O
6.24

Same for NC(N)=NCCC[C@@H](N)C(=O)N[C@@H](CCCN=C(N)N)C(=O)N1CCC[C@H]1C(=O)N1C[C@@H](O)C[C@H]1C(=O)NCC(=O)N[C@@H](Cc1cccs1)C(=O)N[C@@H](CO)C(=O)N1Cc2ccccc2C[C@@H]1C(=O)N1C2CCCC2C[C@H]1C(=O)N[C@@H](CCCN=C(N)N)C(=O)O (stereo partly drawn)
9.75

The values you see were collected from ChEMBL document CHEMBL1125638.
